Each recorded value in this set is attributed to ChEMBL document CHEMBL1961873.

Measured on: Cyclin-dependent kinase 2 (Homo sapiens) (UniProt P24941)
Condition description: at 1 µM
Quick list: inhibition per entry.
Return type: number; implicit unit %.

Reference set, count: 6
[
  {
    "Compound structure": "CS(=O)(=O)CCN(CC#N)Cc1ccc(-c2ccc3ncnc(Nc4ccc(OCc5cccc(F)c5)c(Cl)c4)c3c2)o1",
    "Readout kind": "inhibition",
    "Units": "%",
    "Reported value": -2.87
  },
  {
    "Compound structure": "COc1ccc(-c2ccncc2)cc1C(N)=O",
    "Readout kind": "inhibition",
    "Units": "%",
    "Reported value": 2.68
  },
  {
    "Compound structure": "COc1ccc(-c2nn3ncccc3c2-c2ccnc(Nc3ccc(Cl)c(C(F)(F)F)c3)n2)cc1",
    "Readout kind": "inhibition",
    "Units": "%",
    "Reported value": -2.2
  },
  {
    "Compound structure": "Nc1ncnc2occ(-c3ccc(NC(=O)Nc4cccc(C(F)(F)F)c4)cc3)c12",
    "Readout kind": "inhibition",
    "Units": "%",
    "Reported value": 8.86
  },
  {
    "Compound structure": "COc1cc(C=NNc2ncnc3c2cnn3-c2ccccc2)ccc1O",
    "Readout kind": "inhibition",
    "Units": "%",
    "Reported value": 42.1
  },
  {
    "Compound structure": "CCCN1CCC(Oc2cc(Nc3nc(Nc4cccc(F)c4C(N)=O)c4cc[nH]c4n3)c(OC)cc2Cl)CC1",
    "Readout kind": "inhibition",
    "Units": "%",
    "Reported value": 5.95
  }
]

Query: Recall the recorded inhibition for CN(C)c1cc2c(Nc3ccc4nc(Cc5ccccc5)[nH]c4c3)ncnc2cn1 with Cyclin-dependent kinase 2 (Homo sapiens) (UniProt P24941) and state it.
Reply: 6.58

----------
Quick list: inhibition per entry.
Measured on: Ribosomal protein S6 kinase alpha-6 (Homo sapiens) (UniProt Q9UK32)
Sequence (Q9UK32 whole entry): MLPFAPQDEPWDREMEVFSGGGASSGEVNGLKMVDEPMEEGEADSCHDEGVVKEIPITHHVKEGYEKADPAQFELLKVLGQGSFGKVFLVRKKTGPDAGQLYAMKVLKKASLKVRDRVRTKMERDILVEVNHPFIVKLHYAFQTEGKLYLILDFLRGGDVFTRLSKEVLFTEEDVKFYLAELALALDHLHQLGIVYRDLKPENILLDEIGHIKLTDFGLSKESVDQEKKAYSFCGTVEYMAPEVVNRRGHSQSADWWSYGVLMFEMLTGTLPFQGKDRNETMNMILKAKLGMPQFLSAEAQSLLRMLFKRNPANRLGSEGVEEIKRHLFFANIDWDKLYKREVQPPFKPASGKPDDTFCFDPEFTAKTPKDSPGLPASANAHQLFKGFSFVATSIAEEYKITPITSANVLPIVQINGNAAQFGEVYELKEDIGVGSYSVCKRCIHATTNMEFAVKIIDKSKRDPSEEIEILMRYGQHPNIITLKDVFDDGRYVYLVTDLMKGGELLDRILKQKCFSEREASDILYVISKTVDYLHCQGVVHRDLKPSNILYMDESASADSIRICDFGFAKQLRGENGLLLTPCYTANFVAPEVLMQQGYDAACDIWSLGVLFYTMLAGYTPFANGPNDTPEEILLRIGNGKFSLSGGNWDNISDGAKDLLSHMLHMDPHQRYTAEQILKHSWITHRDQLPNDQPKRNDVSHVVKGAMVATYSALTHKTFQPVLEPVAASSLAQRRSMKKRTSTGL
Condition description: at 0.1 µM
Return type: number; implicit unit %.

Query: Recall the recorded inhibition for c1cnn2ncc(-c3ccnc(Nc4ccc5c(c4)OCCO5)n3)c2c1 with Ribosomal protein S6 kinase alpha-6 (Homo sapiens) (UniProt Q9UK32) and state it.
Reply: 3.28

----------
Measured on: Tyrosine-protein kinase FRK (Homo sapiens) (UniProt P42685)
Sequence (P42685 whole entry): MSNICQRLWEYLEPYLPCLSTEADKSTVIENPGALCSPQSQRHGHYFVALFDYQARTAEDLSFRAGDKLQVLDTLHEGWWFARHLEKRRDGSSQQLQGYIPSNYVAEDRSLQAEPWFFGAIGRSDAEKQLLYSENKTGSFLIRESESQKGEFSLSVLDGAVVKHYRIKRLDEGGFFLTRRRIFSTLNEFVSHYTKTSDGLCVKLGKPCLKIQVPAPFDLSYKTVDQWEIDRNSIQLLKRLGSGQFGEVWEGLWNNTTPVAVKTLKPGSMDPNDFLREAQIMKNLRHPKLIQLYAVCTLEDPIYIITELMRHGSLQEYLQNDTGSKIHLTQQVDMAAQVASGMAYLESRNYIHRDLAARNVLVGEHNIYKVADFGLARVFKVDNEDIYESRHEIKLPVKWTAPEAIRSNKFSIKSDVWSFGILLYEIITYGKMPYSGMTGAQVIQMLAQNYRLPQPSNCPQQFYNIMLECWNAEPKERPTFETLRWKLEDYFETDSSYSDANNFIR
Condition description: at 1 µM
Quick list: inhibition per entry.
Return type: number; implicit unit %.

Reference set, count: 6
[
  {
    "Compound": "O=C1NC(=O)C(N2CCc3ccccc32)=C1c1ccc(Cl)cc1",
    "inhibition, %": 3.4
  },
  {
    "Compound": "CC1=C(C(=O)Nc2ccc3[nH]ncc3c2)C(c2ccc(Cl)c(Cl)c2)CC(=O)N1 (centres undefined)",
    "inhibition, %": 7.47
  },
  {
    "Compound": "CCn1c(-c2nonc2N)nc2c(C#CC(C)(C)O)nc(CN3CCCC3)cc21",
    "inhibition, %": -0.12
  },
  {
    "Compound": "O=C1NC(=O)C(c2ccc(Cl)cc2)=C1Nc1ccc(Cl)c(C(=O)O)c1",
    "inhibition, %": 0.85
  },
  {
    "Compound": "N#Cc1c(NC(=O)c2cccc3ccccc23)sc2c1CCCC2",
    "inhibition, %": 1.48
  },
  {
    "Compound": "CC1=C(C(=O)Nc2ccc3[nH]ncc3c2)C(c2ccc(F)cc2)NC(=O)N1 (centres undefined)",
    "inhibition, %": 1.47
  }
]

Query: Look up inhibition for this compound: CC1=C(C(=O)Nc2ccc3[nH]ncc3c2)C(c2ccc3ccccc3c2)CC(=O)N1 (centres undefined)
Reply: 17.3

Query: Look up inhibition for this compound: CCn1c(-c2nonc2N)nc2cncc(C(=O)N3CCNCC3)c21
Reply: 4.59

Query: Look up inhibition for this compound: CS(=O)(=O)CCNCc1ccc(-c2ccc3ncnc(Nc4ccc(OCc5cccc(F)c5)c(C(F)(F)F)c4)c3c2)o1
Reply: 3.48

----------
Measured on: Tyrosine-protein kinase Lyn (Homo sapiens)
Condition description: at 0.1 µM
Description: GSK_PKIS: LYN A (splice variant) mean inhibition at 0.1 uM [Nanosyn]
Quick list: inhibition per entry.
Return type: number; implicit unit %.

[
  {
    "Compound structure": "N#Cc1c(NC(=O)c2cccc3ccccc23)sc2c1CCCC2",
    "Measured on": "Tyrosine-protein kinase Lyn (Homo sapiens)",
    "Units": "%",
    "Reported value": 4.91
  },
  {
    "Compound structure": "Nc1nc(-c2ccccn2)c(-c2ccc3ncccc3n2)s1",
    "Measured on": "Tyrosine-protein kinase Lyn (Homo sapiens)",
    "Units": "%",
    "Reported value": 4.59
  },
  {
    "Compound structure": "Cc1nn(C)c2cc(N(C)c3ccnc(Nc4cccc(S(N)(=O)=O)c4)n3)ccc12",
    "Measured on": "Tyrosine-protein kinase Lyn (Homo sapiens)",
    "Units": "%",
    "Reported value": 13.6
  },
  {
    "Compound structure": "O=C1Nc2ccc(C(=O)c3ccco3)cc2C1=Cc1cc(Cl)c(O)c(Cl)c1",
    "Measured on": "Tyrosine-protein kinase Lyn (Homo sapiens)",
    "Units": "%",
    "Reported value": 5.67
  }
]

Consider the additional molecule presented here.
Query: Look up inhibition for this molecule: Fc1cccc(COc2ccc(Nc3ncnc4cc(-c5ccc[nH]5)sc34)cc2Cl)c1
Reply: 2.95

----------
Measured on: Aurora kinase B (Homo sapiens) (UniProt Q96GD4)
Sequence (Q96GD4 whole entry): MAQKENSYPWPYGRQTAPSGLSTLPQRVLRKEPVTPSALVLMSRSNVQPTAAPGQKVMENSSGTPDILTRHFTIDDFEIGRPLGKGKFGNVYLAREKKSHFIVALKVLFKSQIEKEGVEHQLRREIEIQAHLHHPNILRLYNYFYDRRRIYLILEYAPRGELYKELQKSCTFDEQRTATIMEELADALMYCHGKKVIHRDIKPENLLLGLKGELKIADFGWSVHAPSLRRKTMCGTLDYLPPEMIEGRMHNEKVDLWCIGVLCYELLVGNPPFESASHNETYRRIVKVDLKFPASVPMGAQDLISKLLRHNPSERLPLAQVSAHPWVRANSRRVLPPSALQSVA
Condition description: at 1 µM
Quick list: inhibition per entry.
Return type: number; implicit unit %.

Reference set, count: 3
[
  {
    "Compound structure": "Cc1ccc(C(=O)NC2CCCCC2)cc1-c1ccc(C(=O)NCC2CC2)cc1",
    "Units": "%",
    "inhibition": 7.57
  },
  {
    "Compound structure": "COC(=O)Nc1nc2cc(Oc3ccc(NC(=O)Nc4cccc(C(=O)O)c4)cc3)ccc2[nH]1",
    "Units": "%",
    "inhibition": 9.37
  },
  {
    "Compound structure": "CCn1c(-c2nonc2N)nc2c(C#CC(C)(C)O)nc(OC[C@@H](N)c3ccccc3)cc21",
    "Units": "%",
    "inhibition": 7.36
  }
]

Query: Look up inhibition for this compound: COC(=O)Nc1nc2cc(Oc3cccc(NC(=O)Nc4cc(C(F)(F)F)ccc4F)c3)ccc2[nH]1
Reply: -0.29

Query: Look up inhibition for this compound: Cc1cccc(-c2n[nH]cc2-c2ccc3ncccc3n2)n1
Reply: 4.2

Query: Look up inhibition for this compound: CS(=O)(=O)Nc1ccc(N/C=C2\C(=O)Nc3ccccc32)cc1
Reply: 43

Query: Look up inhibition for this compound: Cc1nn(C)c2cc(N(C)c3ccnc(Nc4cccc(S(N)(=O)=O)c4)n3)ccc12
Reply: 47.5

Query: Look up inhibition for this compound: COc1ccc(-c2ccncc2)cc1C(N)=O
Reply: 7.24

----------
Measured on: MAP kinase-activated protein kinase 5 (Homo sapiens)
Condition description: at 1 µM
Readout kind: inhibition (%)
Return type: number; implicit unit %.

Reference set, count: 10
[
  {
    "Compound structure": "CS(=O)(=O)CCNCc1ccc(-c2ccc3ncnc(Nc4ccc(OCc5ccccc5)c(Cl)c4)c3c2)o1",
    "Measured on": "MAP kinase-activated protein kinase 5 (Homo sapiens)",
    "Reported value": 0.34
  },
  {
    "Compound structure": "Cc1cccc(-c2n[nH]cc2-c2ccc3ncccc3n2)n1",
    "Measured on": "MAP kinase-activated protein kinase 5 (Homo sapiens)",
    "Reported value": 0.05
  },
  {
    "Compound structure": "NS(=O)(=O)c1ccc(N/N=C2\\C(=O)Nc3ccc(C(=O)NCCc4c[nH]cn4)cc32)cc1",
    "Measured on": "MAP kinase-activated protein kinase 5 (Homo sapiens)",
    "Reported value": 2.5
  },
  {
    "Compound structure": "Cc1ccc(C(=O)NC2CCCCC2)cc1-c1ccc(C(=O)NCC2CC2)cc1",
    "Measured on": "MAP kinase-activated protein kinase 5 (Homo sapiens)",
    "Reported value": -0.72
  },
  {
    "Compound structure": "CS(=O)(=O)CCNCc1ccc(-c2ccc3ncnc(Nc4ccc(OCc5cccc(F)c5)c(C(F)(F)F)c4)c3c2)o1",
    "Measured on": "MAP kinase-activated protein kinase 5 (Homo sapiens)",
    "Reported value": 2.16
  },
  {
    "Compound structure": "CCc1cccc(NC(=O)Nc2ccc(Oc3ccc4nc(NC(=O)OC)[nH]c4c3)cc2)c1",
    "Measured on": "MAP kinase-activated protein kinase 5 (Homo sapiens)",
    "Reported value": 0.96
  },
  {
    "Compound structure": "[O-][S+]1CCN(Cc2ccc(-c3ccc4ncnc(Nc5ccc(OCc6ccccc6)c(F)c5)c4c3)o2)CC1",
    "Measured on": "MAP kinase-activated protein kinase 5 (Homo sapiens)",
    "Reported value": -0.19
  },
  {
    "Compound structure": "CS(=O)(=O)Nc1ccc(N/C=C2\\C(=O)Nc3ccccc32)cc1",
    "Measured on": "MAP kinase-activated protein kinase 5 (Homo sapiens)",
    "Reported value": -0.07
  },
  {
    "Compound structure": "O=C1Nc2ccc(C(=O)c3ccco3)cc2C1=Cc1cc(Cl)c(O)c(Cl)c1",
    "Measured on": "MAP kinase-activated protein kinase 5 (Homo sapiens)",
    "Reported value": 8.16
  },
  {
    "Compound structure": "CCn1c(-c2nonc2N)nc2c(C#CC(C)(C)O)nc(OC[C@@H](N)c3ccccc3)cc21",
    "Measured on": "MAP kinase-activated protein kinase 5 (Homo sapiens)",
    "Reported value": -1.02
  }
]

Consider the additional molecule presented here.
Query: Look up inhibition for this molecule: Nc1nc(-c2ccc3c(c2)C(=Cc2cc(Br)c(O)c(Br)c2)C(=O)N3)cs1
Reply: -0.3
